Measured Ki by item
target: Rhesus PDE2A3 (Macaca mulatta, UniProt B3VTJ2); assay: PDE2 fluorescence polarization (IMAP FP) inhibition assay, rhesus enzyme; assay type: biochemical, rhesus macaque; conditions: Rhesus PDE2, Lab A; read-out: Rhesus PDE2 Ki (nM) - Lab A
Sequence (B3VTJ2 1-941): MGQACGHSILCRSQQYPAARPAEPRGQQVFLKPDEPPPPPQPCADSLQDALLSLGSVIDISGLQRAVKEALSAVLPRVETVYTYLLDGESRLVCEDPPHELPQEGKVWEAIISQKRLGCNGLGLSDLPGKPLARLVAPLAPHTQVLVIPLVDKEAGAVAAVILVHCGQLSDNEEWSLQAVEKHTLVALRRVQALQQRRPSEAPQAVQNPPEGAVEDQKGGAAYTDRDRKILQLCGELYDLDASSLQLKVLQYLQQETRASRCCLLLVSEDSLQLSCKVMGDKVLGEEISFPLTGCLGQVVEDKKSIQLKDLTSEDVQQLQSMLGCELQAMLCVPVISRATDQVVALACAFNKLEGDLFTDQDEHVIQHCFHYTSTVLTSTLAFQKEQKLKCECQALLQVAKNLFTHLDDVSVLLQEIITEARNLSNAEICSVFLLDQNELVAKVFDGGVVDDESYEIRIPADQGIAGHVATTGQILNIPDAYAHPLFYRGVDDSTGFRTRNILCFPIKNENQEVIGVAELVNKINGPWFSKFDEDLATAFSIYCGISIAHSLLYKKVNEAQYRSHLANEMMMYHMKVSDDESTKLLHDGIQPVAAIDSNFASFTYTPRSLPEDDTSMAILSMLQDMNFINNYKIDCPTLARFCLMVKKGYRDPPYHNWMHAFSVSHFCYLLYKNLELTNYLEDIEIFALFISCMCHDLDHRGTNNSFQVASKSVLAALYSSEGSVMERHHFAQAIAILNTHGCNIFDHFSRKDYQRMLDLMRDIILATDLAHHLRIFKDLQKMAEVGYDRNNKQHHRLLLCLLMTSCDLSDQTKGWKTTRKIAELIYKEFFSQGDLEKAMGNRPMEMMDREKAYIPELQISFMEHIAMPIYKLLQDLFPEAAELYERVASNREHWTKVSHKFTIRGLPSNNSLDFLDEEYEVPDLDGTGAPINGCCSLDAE
# number only, unit nM dropped from output

Worked set:
COMPOUND: O=C(N[C@@H](c1ccc(SC(F)(F)F)cc1)C1CC1)c1cc(=O)[nH]c(C2CC2)n1 [Example 214]
UNIT NAME: nM
MEASURED RESULT: 5
--
COMPOUND: Cc1nc(C(=O)NC(C)c2ccc(C(C)(C)C)cc2)cc(=O)[nH]1 (single isomer, unassigned) [Example 309]
UNIT NAME: nM
MEASURED RESULT: 63
--
COMPOUND: COc1cc(C(F)(F)F)ccc1[C@H](C)NC(=O)c1cc(=O)[nH]c(C2CC2)n1 [Example 223]
UNIT NAME: nM
MEASURED RESULT: 1020
--
COMPOUND: COCc1nc(C(=O)NC(CO)c2ccc(C(F)(F)F)cc2)cc(=O)[nH]1 (stereo not shown) [Example 112]
UNIT NAME: nM
MEASURED RESULT: 1110
--
COMPOUND: CC(C)(NC(=O)c1cc(=O)[nH]c(-c2ccccc2)n1)c1ccc(OC(F)(F)F)cc1 [Example 281]
UNIT NAME: nM
MEASURED RESULT: 133

Query C[C@@H](NC(=O)c1nc[nH]c(=O)c1C1CCC1)c1ccc(C(F)(F)F)cc1 [Example 334] on Rhesus PDE2A3 (Macaca mulatta, UniProt B3VTJ2); Ki returned: 2830

Query O=C(NC1(c2ccc(OC(F)(F)F)c(F)c2)CC1)c1cc(=O)[nH]c(-c2ncccn2)n1 [Example 81] on Rhesus PDE2A3 (Macaca mulatta, UniProt B3VTJ2); Ki returned: 23

Query CN(Cc1cc(F)c(F)c(F)c1)C(=O)c1cc(=O)[nH]c(C2CC2)n1 [Example 206] on Rhesus PDE2A3 (Macaca mulatta, UniProt B3VTJ2); Ki returned: 24300

Query CC[C@@H](NC(=O)c1cc(=O)[nH]c(COC)n1)c1ccc(OC(F)(F)F)cc1 [Example 119] on Rhesus PDE2A3 (Macaca mulatta, UniProt B3VTJ2); Ki returned: 74

Query Cc1nc(C(=O)NC(c2ccc(F)cc2)c2ccc(C(F)(F)F)cc2)cc(=O)[nH]1 (stereo not shown) [Example 130] on Rhesus PDE2A3 (Macaca mulatta, UniProt B3VTJ2); Ki returned: 715

Query COc1ccc2cc(C(C)NC(=O)c3cc(=O)[nH]c(-c4ccccc4)n3)ccc2c1 (stereo not shown) [Example 378] on Rhesus PDE2A3 (Macaca mulatta, UniProt B3VTJ2); Ki returned: 26
